Tested on: U2OS
Test: Multiplex assay against U2OS
Assay type: toxicity, cell-based
Settings: human, 12 h, 1 µM, compound concentration 1 uM, replicate 2
Rule: measured Population Pyknosed Nuclei (%) below 10% gets yes (1); anything equal to or greater than 10% gets no (0).

Below are worked cases with known answers.
>>> class_assignment("CC(C)c1cc(Nc2nc(N3CCC[C@H](N)C3)ncc2C(N)=O)cc(C(C)C)n1")
"no (0)"
>>> class_assignment("CC(C)[C@H](CO)Nc1nc(Nc2cccc(Cl)c2)c2ncn(C(C)C)c2n1 [PURVALANOLA]")
"yes (1)"
>>> class_assignment("CC(/C=C1\\SC(=S)N(CCCC(=O)Nc2ccc(C(=O)O)c(O)c2)C1=O)=C\\c1ccccc1")
"yes (1)"

Problem: Take the compound Cl.NC[C@@H]1O[C@H](C23CC4CC(CC(C4)C2)C3)Cc2c1ccc(O)c2O and say whether its Population Pyknosed Nuclei (%) is less than 10%.
Solution: yes (1)
